Please respond with reported normalized growth for every item in the list.
Run description: chemical genetic growth profiling, strain panel (AID 1159580);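 further: tested at 20 µM; growth read once vehicle control cultures reached saturation at 30 °C; 1 = growth at the plate median or of vehicle wells; lower values mean less growth of the strain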
Experimental conditions: S. cerevisiae deletion strains, growth OD, locus YGR078C, strain PAC10, stronger effect = lower value
The whole screen tested about 5,500 compounds, of which about 2,000 (36%) were called active. About 18% were inconclusive and are not listed. This is one part of the list.
Give bare numbers.

{"Compound": "Cc1ccc(SC(=O)c2cccnc2Oc2ccccc2)cc1", "normalized growth": 0.992}
{"Compound": "CC(C)(C)c1ccc(Oc2ncccc2NC(=O)c2ccccc2C(F)(F)F)cc1", "normalized growth": 0.992}
{"Compound": "Cc1ccc(Sc2ncccc2C(=O)NCC(=O)O)cc1", "normalized growth": 1.04}
{"Compound": "CC(=O)O[C@]1(C(C)=O)CC[C@H]2[C@@H]3C=C(Cl)C4=CC(=O)[C@@H]5C[C@@H]5[C@]4(C)[C@H]3CC[C@@]21C", "normalized growth": 0.985}
{"Compound": "C[C@@H]1O[C@@H](O[C@H]2CC[C@]3(C=O)C4CC[C@]5(C)[C@@H](C6=CC(=O)OC6)CC[C@]5(O)C4CC[C@]3(O)C2)[C@H](O)[C@H](O)[C@H]1O (stereo partly drawn)", "normalized growth": 0.974}
{"Compound": "CCOC(=O)C1=C(O)C(=O)N(Cc2ccccc2)C1", "normalized growth": 1.01}

Would you be so kind as to report normalized growth for each listed record?
1. C[C@]12CC[C@H](O)C[C@H]1CCC1C2CC[C@]2(C)[C@@H](C3=CC(=O)OC3)[C@@H](O)C[C@]12O (stereo partly drawn)
2. CO[C@@H]1[C@@H](OC(N)=O)[C@@H](O)[C@H](Oc2ccc3c(O)c(NC(=O)c4ccc(O)c(CC=C(C)C)c4)c(=O)oc3c2C)OC1(C)C

Solution:
1: 1.03; 2: 1.01
